src = patent US9440952B2

# subject-of-test: LRRK2(G2019S mutation, GST-LRRK2(amino acids 970-2527)) (Homo sapiens, UniProt Q5S007, G2019S)
# Construct: GST-LRRK2(amino acids 970-2527); GST (N); purchased Life Technologies Corporation
# Sequence (Q5S007 970-2527 G2019S): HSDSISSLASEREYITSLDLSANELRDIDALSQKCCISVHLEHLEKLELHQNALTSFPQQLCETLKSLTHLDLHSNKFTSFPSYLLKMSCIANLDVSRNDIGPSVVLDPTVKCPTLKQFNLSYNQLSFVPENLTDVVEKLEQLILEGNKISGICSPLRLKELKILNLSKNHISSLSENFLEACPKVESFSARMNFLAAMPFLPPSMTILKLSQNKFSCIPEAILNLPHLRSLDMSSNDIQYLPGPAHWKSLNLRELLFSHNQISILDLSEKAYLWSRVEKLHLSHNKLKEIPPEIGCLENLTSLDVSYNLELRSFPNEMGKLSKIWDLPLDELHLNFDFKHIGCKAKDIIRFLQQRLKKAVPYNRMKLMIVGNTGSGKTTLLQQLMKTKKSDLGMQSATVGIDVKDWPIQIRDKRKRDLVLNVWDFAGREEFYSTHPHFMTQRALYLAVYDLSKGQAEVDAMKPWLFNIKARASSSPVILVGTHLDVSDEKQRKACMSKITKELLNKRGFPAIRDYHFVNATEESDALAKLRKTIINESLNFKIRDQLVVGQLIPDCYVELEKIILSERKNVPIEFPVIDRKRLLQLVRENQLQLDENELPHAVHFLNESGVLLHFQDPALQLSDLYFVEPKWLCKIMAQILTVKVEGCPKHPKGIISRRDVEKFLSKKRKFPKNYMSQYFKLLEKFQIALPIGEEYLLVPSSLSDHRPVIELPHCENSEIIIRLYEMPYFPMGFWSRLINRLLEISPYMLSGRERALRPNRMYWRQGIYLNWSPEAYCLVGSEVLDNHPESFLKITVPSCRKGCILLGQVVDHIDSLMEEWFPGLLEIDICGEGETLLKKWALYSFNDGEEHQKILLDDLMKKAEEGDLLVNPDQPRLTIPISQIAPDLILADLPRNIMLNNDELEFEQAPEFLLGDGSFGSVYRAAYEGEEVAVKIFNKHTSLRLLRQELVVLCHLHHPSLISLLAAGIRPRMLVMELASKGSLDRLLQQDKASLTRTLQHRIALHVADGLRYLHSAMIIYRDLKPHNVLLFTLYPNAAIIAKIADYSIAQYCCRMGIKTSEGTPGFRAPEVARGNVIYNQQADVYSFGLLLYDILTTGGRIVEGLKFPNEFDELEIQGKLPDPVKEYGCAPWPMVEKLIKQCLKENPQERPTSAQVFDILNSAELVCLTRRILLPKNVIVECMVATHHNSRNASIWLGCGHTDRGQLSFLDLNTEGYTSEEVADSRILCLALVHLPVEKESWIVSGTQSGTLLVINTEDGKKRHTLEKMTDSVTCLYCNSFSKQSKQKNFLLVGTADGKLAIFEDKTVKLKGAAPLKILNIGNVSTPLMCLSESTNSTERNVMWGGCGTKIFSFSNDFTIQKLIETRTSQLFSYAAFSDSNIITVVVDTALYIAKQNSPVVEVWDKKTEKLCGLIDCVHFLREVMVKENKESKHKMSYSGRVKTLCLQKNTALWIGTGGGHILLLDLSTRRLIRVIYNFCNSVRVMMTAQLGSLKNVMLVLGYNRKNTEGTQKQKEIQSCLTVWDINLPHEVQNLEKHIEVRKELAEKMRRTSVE
# assay-notes: LRRK2 Km ATP LanthaScreen Assay
# Type: biochemical
# condition-description: Km ATP LanthaScreen Assay; LRRK2 G2019S; mean IC50 values; read-out: LRRK2 IC50
Category | rule: reported IC50 within range, see bottom (below 20 nM), middle (20 nM to below 70 nM), top (70 nM or more)

>>> category_label("CC1CN(c2cc(-c3n[nH]c4ccccc34)ccn2)CC(C)O1 (stereo not drawn)")
"bottom"

Input CC(C)Oc1ccc2[nH]nc(-c3ccnc(NC(=O)CCc4cnn(C)c4)c3)c2c1 ; output its category
middle

* * *

For each record, write down the corresponding pIC50.
# subject-of-test: LRRK2(G2019S mutation, GST-LRRK2(amino acids 970-2527)) (Homo sapiens, UniProt Q5S007, G2019S)
# Construct: GST-LRRK2(amino acids 970-2527); GST (N); purchased Life Technologies Corporation
# assay-notes: LRRK2 Km ATP LanthaScreen Assay
# Assay type: biochemical
# condition-description: Km ATP LanthaScreen; mean IC50 of several tests; read-out: LRRK2 IC50
Give bare numbers, as −log10 of the molar value.

Some compounds with known pIC50 results, for comparison:
>>> measurement("COc1nccnc1-c1ccc2[nH]nc(-c3ccnc(N4CCOCC4)c3)c2c1 [Example 388]")
7.42
>>> measurement("CCOc1ccc2[nH]nc(-c3ccnc(N[C@@H](C)COC)c3)c2c1 [Example 356]")
8.00
>>> measurement("c1cnc(-c2ccc3[nH]nc(-c4ccnc(N5CCOCC5)c4)c3c2)cn1 [Example 324]")
8.96
>>> measurement("CCOc1ccc2[nH]nc(-c3ccnc(NCCO)c3)c2c1 [Example 355]")
8.00
>>> measurement("Cc1ncc(-c2ccc3[nH]nc(-c4ccnc(N5CC(F)C5)c4)c3c2)n1C [Example 307]")
8.68
>>> measurement("CC(C)Oc1ccc2[nH]nc(-c3ccnc(N4CC(C(=O)O)C4)c3)c2c1 [Example 284]")
8.62

Batch request: pIC50 per item, same order as input.
1. CC(C)Oc1cc2c(-c3ccnc(N4CCOCC4)c3)n[nH]c2cc1F [Example 364]
2. Cc1noc(C2CN(c3cc(-c4n[nH]c5ccc(-c6cnn(C)c6)cc45)ccn3)C2)n1 [Example 275]
3. Cn1cnc(-c2ccc3[nH]nc(-c4ccnc(N5CCOCC5)c4)c3c2)c1 [Example 343]
4. CC(O)Cc1cc2c(-c3ccnc(N4CCOCC4)c3)n[nH]c2cc1F (centres unmarked) [Example 350]
5. CCCOc1ccc2[nH]nc(-c3ccnc(N4CCOCC4)c3)c2c1 [Example 301]

1. 8.72
2. 8.25
3. 8.31
4. 7.12
5. 7.92

Batch request: pIC50 per item, same order as input.
1. Cn1cc(-c2ccc3[nH]nc(-c4ccnc(N5CCCC5)c4)c3c2)cn1 [Example 267]
2. Cn1cc(-c2ccc3[nH]nc(-c4ccnc(N5CC[C@H](F)C5)c4)c3c2)cn1 [Example 278]
3. CCOc1ccc2[nH]nc(-c3ccnc(N[C@@H](C)CO)c3)c2c1 [Example 358]
4. c1cc(-c2ccc3[nH]nc(-c4ccnc(N5CCOCC5)c4)c3c2)cc(N2CCOCC2)n1 [Example 399]

8.54
8.72
7.80
7.13

Batch request: pIC50 per item, same order as input.
1. Cn1cnnc1-c1ccc2[nH]nc(-c3ccnc(N4CC(F)C4)c3)c2c1 [Example 309]
2. CC(C)Oc1ccc2[nH]nc(-c3ccnc(N4CCCC4=O)c3)c2c1 [Example 302]
3. CC(C)Oc1ccc2[nH]nc(-c3ccnc(NS(=O)(=O)c4ccc(C5(C#N)CC5)cc4)c3)c2c1 [Example 263]
4. CCOc1ccc2[nH]nc(-c3ccnc(N4CC(OC)C4)c3)c2c1 [Example 359]
5. CC(O)c1ccc2[nH]nc(-c3ccnc(N4CCOCC4)c3)c2c1 (centres unmarked) [Example 126]
6. Cc1c(-c2ccc3[nH]nc(-c4ccnc(N5CCOCC5)c4)c3c2)cnn1C [Example 316]
7. COc1ccc2c(-c3ccnc(N4CCOCC4)c3)n[nH]c2c1 [Example 105]
8. CCOc1ccc2[nH]nc(-c3ccnc(N4CCCC4)c3)c2c1 [Example 297]

[8.74, 7.62, 7.22, 7.82, 8.00, 8.68, 7.52, 8.14]
